- TARGET_SYSTEM: IKKε (Homo sapiens)
- Construct: His-tag; made in house; host or cells: Sf9 insect cells
- Sequence (Q14164 whole entry): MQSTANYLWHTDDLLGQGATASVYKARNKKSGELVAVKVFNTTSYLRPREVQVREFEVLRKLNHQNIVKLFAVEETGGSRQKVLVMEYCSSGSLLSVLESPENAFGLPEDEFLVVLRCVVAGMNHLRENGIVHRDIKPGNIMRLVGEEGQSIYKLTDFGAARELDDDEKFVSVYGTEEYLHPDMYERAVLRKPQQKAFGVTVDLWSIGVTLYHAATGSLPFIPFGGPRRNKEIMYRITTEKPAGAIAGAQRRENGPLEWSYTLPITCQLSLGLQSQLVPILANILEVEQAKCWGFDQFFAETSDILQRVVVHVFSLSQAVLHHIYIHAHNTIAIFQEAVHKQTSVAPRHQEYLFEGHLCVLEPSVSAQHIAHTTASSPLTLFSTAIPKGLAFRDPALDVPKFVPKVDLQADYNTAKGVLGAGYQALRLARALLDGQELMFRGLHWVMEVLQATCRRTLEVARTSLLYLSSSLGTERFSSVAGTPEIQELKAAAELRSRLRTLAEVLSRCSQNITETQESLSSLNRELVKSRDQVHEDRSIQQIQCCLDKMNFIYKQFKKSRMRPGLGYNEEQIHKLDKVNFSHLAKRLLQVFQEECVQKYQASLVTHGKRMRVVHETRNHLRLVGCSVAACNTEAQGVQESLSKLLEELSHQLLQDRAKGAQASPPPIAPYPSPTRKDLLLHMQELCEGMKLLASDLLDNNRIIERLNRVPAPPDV
- ASSAY_DETAILS: In-vitro IKKε kinase assay ([γ33]ATP filter-plate)
- Type: biochemical
- PARTICULARS: text bins; read-out: IC50 for inhibition of the kinase activity of IKKε
VALUE_TYPE: IC50

Below, 5 compounds whose answers are already recorded.
CCN(CC)CCN(CC)C(=O)Cc1cccc(Nc2nccc(-c3ccc(OC4CCOCC4)c(C#N)c3)n2)c1 [compound 409]    5 to 50 nM
CC(C)C(=O)Nc1ccc(-c2ccnc(Nc3ccc(F)c(OCCCN4CCOCC4)c3)n2)cc1C#N [compound 411]    5 to 50 nM
CN(C)C(=O)CN(C)c1ccc(Nc2nccc(-c3ccc(OC4CCOCC4)c(C#N)c3)n2)cc1 [Example 82]    < 5 nM
CC(=O)N1CCC(COc2ccc(-c3ccnc(Nc4ccc(N5CCOCC5)cc4)n3)cc2C#N)C1 (stereo not shown) [compound 469]    5 to 50 nM
CC(C)(O)CNC(=O)Nc1cccc(Nc2nccc(-c3ccc(OC4CCOCC4)c(C#N)c3)n2)c1 [compound 649]    < 5 nM

For each listed entry, give its IC50.
1. C[C@@H](O)C(=O)N1CCC(Oc2ccc(-c3ccnc(Nc4ccc(N5CCOCC5)cc4)n3)cc2C#N)CC1 [Example 140]
2. CC(C)NCCc1ccc(Nc2nccc(-c3ccc(NC(=O)C(C)C)c(C#N)c3)n2)cc1 [compound 462]

5 to 50 nM
5 to 50 nM
